# TARGET OR SYSTEM: FTase (Bos taurus, UniProt P29702+P49355)
# Construct: bovine brain by inference from the cited Moores et al. 1991
# RUN DESCRIPTION: Inhibition of FTase-mediated prenylation (in vitro prenylation assay)
# CONDITION DESCRIPTION: Table 1; partially purified FTase, 3 μM recombinant H-ras, 440 nM [3H]FPP, 15 min 37° C
pIC50: −log10 of the molar value.
Parameter: pIC50. Scope: all listed entries.
QUANTITY MEASURED: pIC50

1) CSCC[C@H](NC(=O)C(/C=C/C(/C=C/CCS)C(C)C)Cc1ccccc1)C(=O)O (stereo partly shown) [PD162]    6.59
2) CSCC[C@H](NC(=O)c1cc(C/C=C/C(N)CS)ccc1-c1cccc(C(F)(F)F)c1)C(=O)O (stereo partly shown)    7.62
3) NC(=O)CC[C@H](NC(=O)c1cc(C/C=C/C(N)CS)ccc1-c1ccccc1)C(=O)O (stereo partly shown)    9.07
4) CC[C@H](C)[C@H](NC[C@@H](/C=C/C(N)CS)C(C)C)C(=O)N[C@@H](CCSC)C(=O)O (stereo partly shown)    7.70
5) COC(=O)C(CCSC)NC(=O)C(Cc1ccccc1)OCC(C=CC(N)CSSCC(N)C=CC(COC(Cc1ccccc1)C(=O)NC(CCSC)C(=O)OC)C(C)C)C(C)C (stereo not shown)    6.54
6) COC(=O)[C@H](CCSC)NC(=O)c1cc(CCCC(N)CS)ccc1-c1ccsc1 (stereo partly shown)    6.92
7) COC(=O)[C@H](CCS(C)(=O)=O)NC(=O)C(Cc1cccs1)N(C)C[C@@H](/C=C/C(N)CS)C(C)C (stereo partly shown)    7.55

###

# System: H-ras farnesylation in H-ras (61L) transformed NIH3T3 fibroblasts
# RUN DESCRIPTION: Inhibition of H-ras farnesylation in whole cells (Western blot)
# Type: cell-based, mouse
# CONDITION DESCRIPTION: Mus musculus, NIH3T3, 24 h, Table 2
pIC50: −log10 of the molar value.
Please use satisfied whenever pIC50 is not below 5, and not satisfied whenever it is.

1. CSCC[C@H](NC(=O)c1cc(C/C=C/C(N)CS)ccc1-c1ccco1)C(=O)O (stereo partly shown)    satisfied
2. CSCC[C@H](NC(=O)C(/C=C/C(/C=C/CCS)C(C)C)Cc1ccccc1)C(=O)O (single isomer, unassigned) [PD112]    not satisfied
3. NC(/C=C/Cc1ccc(-c2ccccc2)c(C(=O)N[C@@H](CO)C(=O)O)c1)CS (stereo partly shown)    not satisfied
4. CSCC[C@H](NC(=O)C(/C=C\[C@@H](/C=C/[C@@H](N)CS)C(C)C)Cc1ccccc1)C(=O)O (stereo partly shown)    satisfied
5. CSCCC(NC(=O)C(Cc1ccccc1)OCC(C=CC(N)CSSCC(N)C=CC(COC(Cc1ccccc1)C(=O)NC(CCSC)C(=O)O)C(C)C)C(C)C)C(=O)O (stereo not shown)    satisfied
6. COc1ccc(C/C=C/C(N)CS)cc1C(=O)N[C@@H](CCSC)C(=O)O (stereo partly shown)    not satisfied
7. CSCC[C@H](NC(=O)c1cc(C/C=C/[C@@H](N)CS)ccc1-c1cc(C(F)(F)F)cc(C(F)(F)F)c1)C(=O)O    not satisfied

###

# TARGET OR SYSTEM: FTase (Bos taurus, UniProt P29702+P49355)
# Construct: bovine brain by inference from the cited Moores et al. 1991
# RUN DESCRIPTION: Inhibition of FTase-mediated prenylation (in vitro prenylation assay)
# CONDITION DESCRIPTION: Table 1; partially purified FTase, 3 μM recombinant H-ras, 440 nM [3H]FPP, 15 min 37° C
pIC50: −log10 of the molar value.
Please use t whenever pIC50 is not below 8, and f whenever it is.

1. CC(C)C(/C=C/[C@@H](/C=C/C(N)CS)C(C)C)C(=O)N[C@@H](CCC(N)=O)C(=O)O (stereo partly shown)    t
2. COC(=O)[C@H](CCSC)N(C)C(=O)C(/C=C\[C@@H](/C=C/C(N)CS)C(C)C)Cc1ccccc1 (stereo partly shown)    f
3. CSCC[C@H](NC(=O)C(/C=C/[C@@H](/C=C/C(N)CS)C(C)C)C(C)C)C(=O)N1CCOCC1 (stereo partly shown)    f
4. CSCC[C@H](NC(=O)C(/C=C/[C@@H](/C=C/C(N)CS)C(C)(C)C)C(C)C)C(=O)O (stereo partly shown) [PD142]    f
5. CC(C)[C@H](/C=C/C(N)CS)COC(Cc1ccccc1)C(=O)N[C@@H](CCS(C)(=O)=O)C(=O)O (stereo partly shown)    f
6. CSCC[C@H](NC(=O)c1cc(C/C=C\C(N)CS)ccc1-c1ccccc1)C(=O)O (stereo partly shown)    f
7. CSCC[C@H](NC(=O)C(/C=C/[C@@H](/C=C/C(N)CS)C(C)(C)C)Cc1ccccc1)C(=O)O (stereo partly shown) [PD012]    f
8. CSCC[C@H](NC(=O)C(/C=C\[C@@H](/C=C/C(N)CS)C(C)C)Cc1ccccc1)C(=O)O (stereo partly shown)    f
9. COC(=O)C(CCSC)NC(=O)C(/C=C\[C@@H](/C=C/C(N)CS)C(C)C)Cc1ccccc1 (stereo partly shown)    f
10. CSCC[C@H](NC(=O)c1cc(C/C=C/C(N)CS)ccc1-c1ccc(C(F)(F)F)cc1)C(=O)O (stereo partly shown)    f
11. CSCCC(=O)NCC(/C=C/[C@@H](/C=C/[C@@H](N)CS)C(C)C)C(C)C (stereo partly shown)    f
12. COc1ccc(C/C=C/C(N)CS)cc1C(=O)N[C@@H](CCSC)C(=O)O (stereo partly shown)    t

###

# Tested on: H-ras farnesylation in H-ras (61L) transformed NIH3T3 fibroblasts
# RUN DESCRIPTION: Inhibition of H-ras farnesylation in whole cells (Western blot)
# Type: cell-based, mouse
# CONDITION DESCRIPTION: Table 2, 24 h
pIC50: −log10 of the molar value.
Parameter: pIC50. Scope: all listed entries.
QUANTITY MEASURED: pIC50

1) CSCC[C@H](NC(=O)C(/C=C/[C@@H](/C=C/C(N)CS)C(C)(C)C)Cc1ccccc1)C(=O)O (stereo partly shown) [PD012]    4.14
2) C[C@H](/C=C/C(N)CS)/C=C/C(Cc1ccccc1)C(=O)N[C@@H](CCC(N)=O)C(=O)O (stereo partly shown) [PD102]    4.12
3) CSCC[C@H](NC(=O)C(/C=C/[C@@H](/C=C/C(N)CS)C(C)(C)C)Cc1ccccc1)C(=O)O (stereo partly shown) [PD182]    5.55
4) C[C@H](/C=C/C(N)CS)/C=C/C(Cc1ccccc1)C(=O)N[C@@H](CCC(N)=O)C(=O)O (stereo partly shown) [PD062]    4.68

###

# TARGET OR SYSTEM: GGTase
# RUN DESCRIPTION: Inhibition of GGTase-mediated prenylation (in vitro prenylation assay)
# CONDITION DESCRIPTION: Table 1; partially purified GGTase, 5 μM recombinant H-ras (61L, CAIL), 1 μM [3H] geranylgeranyl diphosphate
pIC50: −log10 of the molar value.
Please use Fulfilled whenever pIC50 is not below 6, and Not fulfilled whenever it is.

1) CSCCC(NC(=O)C(C=CC(C=CC(N)CSSCC(N)C=CC(C=CC(Cc1ccccc1)C(=O)NC(CCSC)C(=O)O)C(C)C)C(C)C)Cc1ccccc1)C(=O)O (stereo not drawn)    Fulfilled
2) CSCC[C@H](NC(=O)C(/C=C/[C@@H](/C=C/C(N)CS)C(C)C)C(C)C)C(N)=O (stereo partly drawn)    Not fulfilled
3) CSCC[C@H](NC(=O)c1cc(C/C=C/C(N)CS)ccc1C)C(=O)O (stereo partly drawn)    Not fulfilled
4) CSCC[C@H](NC(=O)C(/C=C/[C@@H](/C=C/C(N)CS)C(C)(C)C)C(C)C)C(=O)O (single isomer, unassigned) [PD152]    Fulfilled
5) CSCC[C@H](NC(=O)C(NC[C@@H](/C=C/C(N)CS)C(C)C)C(C)C)C(=O)O (stereo partly drawn)    Fulfilled

###

# TARGET OR SYSTEM: GGTase
# RUN DESCRIPTION: Inhibition of GGTase-mediated prenylation (in vitro prenylation assay)
# CONDITION DESCRIPTION: Table 1; partially purified GGTase, 5 μM recombinant H-ras (61L, CAIL), 1 μM [3H] geranylgeranyl diphosphate
Decide using IC50 alone. Strictly below 200 nM: YES. Equal to or above 200 nM: NO.

1. CCOC(=O)[C@H](CCSC)NC(=O)c1cc(C/C=C/C(N)CS)ccc1-c1ccccc1 (some centres unmarked) [PM151]    NO
2. CSCC[C@H](NC(=O)C(/C=C/[C@@H](/C=C/[C@@H](N)CS)C(C)C)C(C)C)C(=O)NC(C)(C)C (some centres unmarked) [PD222]    NO
3. C=Cc1ccc(C/C=C/C(N)CS)cc1C(=O)N[C@@H](CCSC)C(=O)O (some centres unmarked) [PM012]    NO
4. CS(=O)(=O)CC[C@H](NC(=O)c1cc(C/C=C/C(N)CS)ccc1-c1ccccc1)C(=O)O (some centres unmarked) [PM161]    NO
5. CSCC[C@H](NC(=O)C(Cc1cccs1)N(C)C[C@@H](/C=C/C(N)CS)C(C)C)C(=O)O (some centres unmarked) [PA071]    NO
6. COC(=O)[C@H](CCSC)NC(=O)c1cc(C/C=C/C(N)CS)ccc1-c1ccsc1 (some centres unmarked) [PM192]    NO
7. CSCC[C@H](NC(=O)C(/C=C\[C@@H](/C=C/[C@@H](N)CS)C(C)C)Cc1ccccc1)C(=O)O (some centres unmarked) [PD331]    YES
8. COC(=O)[C@H](CCSC)NC(=O)C(NC[C@@H](/C=C/C(N)CS)C(C)C)C(C)C (some centres unmarked) [PA101]    NO
9. CSCC[C@H](NC(=O)c1cc(C/C=C/C(N)CS)ccc1-c1ccco1)C(=O)O (some centres unmarked) [PM052]    YES
10. NC(/C=C/Cc1ccc(-c2ccccc2)c(C(=O)N[C@@H](CO)C(=O)O)c1)CS (some centres unmarked) [PM091]    NO
11. NC(/C=C/Cc1ccc(-c2ccccc2)c(C(=O)N[C@@H](Cc2ccccc2)C(=O)O)c1)CS (some centres unmarked) [PM172]    YES
12. COC(=O)[C@H](CCSC)NC(=O)C(/C=C/[C@@H](/C=C/C(N)CS)C(C)C)C(C)C (some centres unmarked) [PD411]    NO
13. CSCC[C@H](NC(=O)C(/C=C/[C@@H](/C=C/C(N)CS)C(C)C)C(C)C)C(=O)NCc1ccccn1 (some centres unmarked) [PD192]    NO
14. CSCC[C@H](NC(=O)c1cc(CCCC(N)CS)ccc1-c1ccsc1)C(=O)O (some centres unmarked) [PM162]    YES
15. CC(C)[C@H](/C=C/C(N)CS)CN(C)C(Cc1cccs1)C(=O)N[C@@H](CCS(C)(=O)=O)C(=O)O (some centres unmarked) [PA121]    NO
16. CSCC[C@H](NC(=O)C(Cc1cccs1)NC[C@@H](/C=C/C(N)CS)C(C)C)C(=O)O (some centres unmarked) [PA031]    NO
17. CSCC[C@H](NC(=O)C(/C=C/[C@@H](/C=C/C(N)CS)C(C)(C)C)Cc1ccccc1)C(=O)O (some centres unmarked) [PD182]    YES
18. CSCC[C@H](NC(=O)c1cc(C/C=C/C(N)CS)ccc1-c1cccs1)C(=O)O (some centres unmarked) [PM182]    NO
19. CC(C)C(/C=C/[C@@H](/C=C/C(N)CS)C(C)C)C(=O)N[C@@H](CCC(N)=O)C(=O)O (some centres unmarked) [PD022]    NO
20. COC(=O)[C@H](CCS(C)(=O)=O)NC(=O)C(Cc1ccccc1)OC[C@@H](/C=C/C(N)CS)C(C)C (some centres unmarked) [PE061]    NO
21. COC(=O)[C@H](CCSC)NC(=O)C(Cc1cccs1)NC[C@@H](/C=C/C(N)CS)C(C)C (some centres unmarked) [PA081]    NO
22. CSCC[C@H](NC(=O)C(/C=C/C(/C=C/CCS)C(C)C)Cc1ccccc1)C(=O)O (single isomer, unassigned) [PD052]    NO
23. CC(C)[C@H](/C=C/C(N)CS)CNC(Cc1cccs1)C(=O)N[C@@H](CCS(C)(=O)=O)C(=O)O (some centres unmarked) [PA111]    NO
24. CSCC[C@H](NC(=O)c1cccc(C/C=C/C(N)CS)c1)C(=O)O (some centres unmarked) [PM102]    NO
25. CCc1ccc(C/C=C/C(N)CS)cc1C(=O)N[C@@H](CCSC)C(=O)OC (some centres unmarked) [PM212]    NO
26. CSCCC(NC(=O)C(Cc1ccccc1)OCC(C=CC(N)CSSCC(N)C=CC(COC(Cc1ccccc1)C(=O)NC(CCSC)C(=O)O)C(C)C)C(C)C)C(=O)O (centres unmarked) [PE041]    YES
27. CSCCC(NC(=O)C(/C=C\[C@@H](/C=C/C(N)CS)C(C)C)C(C)C)C(=O)O (some centres unmarked) [PD122]    YES
28. CCOC(=O)[C@H](CCSC)NC(=O)C(/C=C/[C@@H](/C=C/C(N)CS)Cc1ccccc1)C(C)C (some centres unmarked) [PD351]    NO
29. CC(C)C(/C=C/[C@@H](/C=C/C(N)CS)C(C)C)C(=O)N[C@@H](CO)C(=O)O (some centres unmarked) [PD202]    NO
30. CC(C)[C@H](/C=C/C(N)CS)COC(Cc1ccccc1)C(=O)N[C@@H](CCS(C)(=O)=O)C(=O)O (some centres unmarked) [PE031]    YES
31. COC(=O)[C@H](CCSC)NC(=O)C(Cc1ccccc1)OC[C@@H](/C=C/C(N)CS)C(C)C (some centres unmarked) [PE011]    NO
32. CSCC[C@H](NC(=O)c1cc(C/C=C/C(N)CS)ccc1-c1cccc(C(F)(F)F)c1)C(=O)O (some centres unmarked) [PM111]    NO
